Test Target: EPHB2 (UniProt P29323)
Sequence (P29323 whole entry, looked up): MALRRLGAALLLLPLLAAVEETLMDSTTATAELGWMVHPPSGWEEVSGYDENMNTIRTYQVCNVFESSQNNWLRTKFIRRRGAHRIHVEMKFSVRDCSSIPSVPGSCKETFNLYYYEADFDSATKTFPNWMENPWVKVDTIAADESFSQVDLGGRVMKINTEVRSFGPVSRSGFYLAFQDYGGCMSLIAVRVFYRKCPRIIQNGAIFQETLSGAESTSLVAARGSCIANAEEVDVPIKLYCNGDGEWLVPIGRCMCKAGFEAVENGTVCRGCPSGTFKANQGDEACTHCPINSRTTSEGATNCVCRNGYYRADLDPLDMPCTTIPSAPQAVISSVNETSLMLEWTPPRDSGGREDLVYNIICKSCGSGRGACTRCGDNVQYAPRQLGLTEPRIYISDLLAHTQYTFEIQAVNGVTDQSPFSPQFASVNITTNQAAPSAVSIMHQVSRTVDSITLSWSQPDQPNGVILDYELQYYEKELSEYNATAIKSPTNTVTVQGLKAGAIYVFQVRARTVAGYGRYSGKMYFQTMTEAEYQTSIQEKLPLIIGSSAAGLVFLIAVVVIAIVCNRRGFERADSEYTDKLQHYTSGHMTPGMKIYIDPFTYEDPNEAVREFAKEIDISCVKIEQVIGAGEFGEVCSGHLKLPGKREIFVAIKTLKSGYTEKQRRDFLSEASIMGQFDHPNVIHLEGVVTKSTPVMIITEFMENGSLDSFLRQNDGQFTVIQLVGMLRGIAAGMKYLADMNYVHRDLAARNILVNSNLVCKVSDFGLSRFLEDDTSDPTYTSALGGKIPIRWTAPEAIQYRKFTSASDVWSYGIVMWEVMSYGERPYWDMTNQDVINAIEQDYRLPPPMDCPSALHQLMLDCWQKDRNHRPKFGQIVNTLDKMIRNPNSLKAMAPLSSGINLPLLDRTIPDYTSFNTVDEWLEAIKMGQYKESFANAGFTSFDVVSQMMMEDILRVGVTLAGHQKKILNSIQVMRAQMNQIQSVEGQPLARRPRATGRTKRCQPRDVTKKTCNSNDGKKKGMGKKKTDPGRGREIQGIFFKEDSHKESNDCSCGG
Experiment Description: phosphorylation enrichment, bacterial display (enrichment ratio); higher = better substrate or ligand; peptides without Tyr show the background;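 further: 11-residue human phosphosite peptides and single-mutation variants displayed on the E. coli surface, counted by deep sequencing, each peptide's frequency after selection divided by its frequency in the unselected input library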;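 further: frequency after pTyr selection over input frequency; kinase dosed for 20-30% of maximal phosphorylation in three min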
Measure: phosphorylation enrichment

[[record]]
monomer_sequence = "PGVDIYISPNM [PADI3_Y51]"
numeric_value = 0.973

[[record]]
monomer_sequence = "RHTRSYDFMEG [FGF7_Y56_YF]"
numeric_value = 0.792

[[record]]
monomer_sequence = "FQNGMYGLHQD [SGSH_Y89_H84Y_YF]"
numeric_value = 0.543

[[record]]
monomer_sequence = "LSAPWYLNRIS [HEXA_Y421]"
numeric_value = 0.511

[[record]]
monomer_sequence = "VVGMLYVGGLP [LAMA2_Y2886]"
numeric_value = 0.644

[[record]]
monomer_sequence = "PELINYHQHYS [BTK_Y361_N365Y]"
numeric_value = 1.68

[[record]]
monomer_sequence = "DVVKDYAFVHM [RBM14_Y114]"
numeric_value = 5.38

[[record]]
monomer_sequence = "ADNSAYLMGLN [MYH7_Y386_K383N]"
numeric_value = 0.566

[[record]]
monomer_sequence = "RSHLSYDVTPE [IQGAP3_Y1098_P1097S]"
numeric_value = 0.717

[[record]]
monomer_sequence = "WAFNLYDINKY [KCNIP3_Y174_D179Y]"
numeric_value = 3.92

[[record]]
monomer_sequence = "SEEVTYATLTF [CLEC12B_Y7]"
numeric_value = 1.07

[[record]]
monomer_sequence = "KVKVEYDMTVP [AHNAK_Y964_G962V]"
numeric_value = 0.59

[[record]]
monomer_sequence = "SVVVPYEPAEV [TP53_Y220_P223A]"
numeric_value = 0.689

[[record]]
monomer_sequence = "NARGLYYKLHN [GATA2_Y376_C373R]"
numeric_value = 0.586

[[record]]
monomer_sequence = "GEEIKDMLWLS [OTC_Y55_Y55D]"
numeric_value = 0.462

[[record]]
monomer_sequence = "QRDSSYFWEIE [RAF1_Y340_YF]"
numeric_value = 0.968

[[record]]
monomer_sequence = "CTTIHFNYMCN [TP53_Y234_Y234F]"
numeric_value = 0.501

[[record]]
monomer_sequence = "NVADHYGVFKP [ATP6V0D2_Y271_YF]"
numeric_value = 0.441

[[record]]
monomer_sequence = "SVAVPYEPPEV [TP53_Y220_V217A]"
numeric_value = 0.626

[[record]]
monomer_sequence = "VRALTYCDLHK [KCNH2_Y827]"
numeric_value = 0.704

[[record]]
monomer_sequence = "DFEGLYQEGGG [TMEM159_Y159_E154D]"
numeric_value = 0.791

[[record]]
monomer_sequence = "ERSMSYCDESR [SMG1_Y143_S144C]"
numeric_value = 0.496

[[record]]
monomer_sequence = "MSSHHCDFKKF [ZNF445_Y428_Y428C_YF]"
numeric_value = 0.393

[[record]]
monomer_sequence = "QYQLKYSETPF [SIX6OS1_Y129]"
numeric_value = 0.907

[[record]]
monomer_sequence = "EEGRVYVFRLS [ITGAE_Y549_YF]"
numeric_value = 0.605

[[record]]
monomer_sequence = "NVVVPYEPPEV [TP53_Y220_S215N]"
numeric_value = 0.708

[[record]]
monomer_sequence = "GKMPQYLESMQ [CYB5R3_Y130_S128P]"
numeric_value = 0.412


* * *

Test Target: Fes (UniProt P07332)
Sequence (P07332 whole entry, looked up): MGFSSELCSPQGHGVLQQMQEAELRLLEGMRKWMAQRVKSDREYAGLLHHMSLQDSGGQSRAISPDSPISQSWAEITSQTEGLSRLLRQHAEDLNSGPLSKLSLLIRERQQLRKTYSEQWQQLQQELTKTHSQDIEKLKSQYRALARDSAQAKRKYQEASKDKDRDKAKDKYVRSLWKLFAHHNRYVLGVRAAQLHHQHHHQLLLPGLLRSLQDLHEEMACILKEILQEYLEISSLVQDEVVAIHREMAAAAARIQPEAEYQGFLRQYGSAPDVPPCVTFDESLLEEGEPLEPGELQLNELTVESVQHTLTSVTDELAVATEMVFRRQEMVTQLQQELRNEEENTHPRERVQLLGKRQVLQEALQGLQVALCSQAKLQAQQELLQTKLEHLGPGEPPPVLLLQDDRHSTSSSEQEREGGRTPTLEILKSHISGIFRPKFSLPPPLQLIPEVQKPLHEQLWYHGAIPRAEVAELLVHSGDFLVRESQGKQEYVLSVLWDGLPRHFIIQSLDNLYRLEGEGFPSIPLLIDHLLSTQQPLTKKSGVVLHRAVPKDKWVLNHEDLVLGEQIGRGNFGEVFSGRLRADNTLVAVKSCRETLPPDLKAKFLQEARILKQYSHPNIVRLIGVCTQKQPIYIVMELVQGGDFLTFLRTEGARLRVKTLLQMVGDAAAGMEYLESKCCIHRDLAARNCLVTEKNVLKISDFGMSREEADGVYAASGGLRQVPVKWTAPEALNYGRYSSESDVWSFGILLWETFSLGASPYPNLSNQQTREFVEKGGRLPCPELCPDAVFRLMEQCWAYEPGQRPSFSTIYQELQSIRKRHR
Experiment Description: phosphorylation enrichment, bacterial display (enrichment ratio); higher = better substrate or ligand; peptides without Tyr show the background
Measure: phosphorylation enrichment

[[record]]
monomer_sequence = "DGTVHYVDEKG [IFT140_Y216]"
measure = "phosphorylation enrichment"
numeric_value = 1.23

[[record]]
monomer_sequence = "SISLKYEGRVY [ABL1_Y167_R166K]"
measure = "phosphorylation enrichment"
numeric_value = 1.38

[[record]]
monomer_sequence = "TEAEPYYCSLR [NPHS1_Y1138_R1140C]"
measure = "phosphorylation enrichment"
numeric_value = 1.5

[[record]]
monomer_sequence = "DVVKDYAFVHM [RBM14_Y114]"
measure = "phosphorylation enrichment"
numeric_value = 0.933

[[record]]
monomer_sequence = "RNFDTYTAGLS [RHBDD1_Y264_YF]"
measure = "phosphorylation enrichment"
numeric_value = 0.802

[[record]]
monomer_sequence = "FKDYFYCWNTS [AICDA_Y146_F151S]"
measure = "phosphorylation enrichment"
numeric_value = 1.44

[[record]]
monomer_sequence = "KAESWYQTKYE [KRT75_Y342_E337K]"
measure = "phosphorylation enrichment"
numeric_value = 0.698

[[record]]
monomer_sequence = "RHTRSYDYMEG [FGF7_Y56]"
measure = "phosphorylation enrichment"
numeric_value = 0.958

[[record]]
monomer_sequence = "ARLEFCENEKK [IRS1_Y47_Y47C_YF]"
measure = "phosphorylation enrichment"
numeric_value = 1.23

[[record]]
monomer_sequence = "GHNNVYISEHV [GRIN2A_Y1423_D1421N]"
measure = "phosphorylation enrichment"
numeric_value = 0.6

[[record]]
monomer_sequence = "WDLSEYSFKDP [ITGA3_Y237_YF]"
measure = "phosphorylation enrichment"
numeric_value = 1.23

[[record]]
monomer_sequence = "SKEPFYVHCIK [MYO1D_Y586_R588H_YF]"
measure = "phosphorylation enrichment"
numeric_value = 1.07

[[record]]
monomer_sequence = "ERWLKYFPNEQ [HS3ST5_Y244_I247N]"
measure = "phosphorylation enrichment"
numeric_value = 1.12

[[record]]
monomer_sequence = "CPSLLYSPVSS [CAMKK2_Y128_P127L]"
measure = "phosphorylation enrichment"
numeric_value = 2.02

[[record]]
monomer_sequence = "TLSGIYQYNIA [FOXL2_Y81_I84N]"
measure = "phosphorylation enrichment"
numeric_value = 0.963

[[record]]
monomer_sequence = "VKALKYKSMKI [ITGA11_Y1098_L1093V]"
measure = "phosphorylation enrichment"
numeric_value = 0.507

[[record]]
monomer_sequence = "AGQEGYDRLRP [RAC1_Y64_D63G]"
measure = "phosphorylation enrichment"
numeric_value = 0.712

[[record]]
monomer_sequence = "HHTDECEFDEL [TGM1_Y134_Y134C_YF]"
measure = "phosphorylation enrichment"
numeric_value = 1.1

[[record]]
monomer_sequence = "GGMTEYKLVVV [KRAS_Y4]"
measure = "phosphorylation enrichment"
numeric_value = 0.929

[[record]]
monomer_sequence = "DRLASYLDKVR [KRT10_Y160]"
measure = "phosphorylation enrichment"
numeric_value = 0.643


* * *

Attribute: phosphorylation enrichment
Test Target: EPHB1 (UniProt P54762)
Sequence (P54762 whole entry, looked up): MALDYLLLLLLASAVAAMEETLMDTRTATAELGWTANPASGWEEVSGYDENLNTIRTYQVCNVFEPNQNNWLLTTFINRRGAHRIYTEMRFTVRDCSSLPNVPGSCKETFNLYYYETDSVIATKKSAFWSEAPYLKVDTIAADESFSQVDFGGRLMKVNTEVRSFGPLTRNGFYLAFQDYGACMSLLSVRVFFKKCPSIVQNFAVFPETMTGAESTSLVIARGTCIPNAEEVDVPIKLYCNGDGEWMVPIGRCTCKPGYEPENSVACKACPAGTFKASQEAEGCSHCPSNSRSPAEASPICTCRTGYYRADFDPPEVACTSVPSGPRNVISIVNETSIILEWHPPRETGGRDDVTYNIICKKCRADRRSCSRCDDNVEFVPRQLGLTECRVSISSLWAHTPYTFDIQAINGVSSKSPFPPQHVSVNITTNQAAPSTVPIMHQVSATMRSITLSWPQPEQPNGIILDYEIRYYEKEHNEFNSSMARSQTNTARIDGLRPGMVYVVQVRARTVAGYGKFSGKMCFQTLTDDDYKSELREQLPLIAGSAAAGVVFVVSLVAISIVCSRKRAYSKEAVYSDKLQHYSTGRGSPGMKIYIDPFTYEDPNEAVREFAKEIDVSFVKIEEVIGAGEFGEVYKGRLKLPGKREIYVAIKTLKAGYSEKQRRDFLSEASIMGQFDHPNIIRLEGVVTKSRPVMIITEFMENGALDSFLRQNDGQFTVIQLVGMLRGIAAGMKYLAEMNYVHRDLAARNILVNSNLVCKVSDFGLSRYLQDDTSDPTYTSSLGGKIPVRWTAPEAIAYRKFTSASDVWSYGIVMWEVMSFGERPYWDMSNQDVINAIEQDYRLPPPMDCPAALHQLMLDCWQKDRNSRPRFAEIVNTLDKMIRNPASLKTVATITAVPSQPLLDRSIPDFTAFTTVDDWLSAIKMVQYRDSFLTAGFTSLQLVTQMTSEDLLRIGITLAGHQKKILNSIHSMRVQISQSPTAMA
Experiment Description: phosphorylation enrichment, bacterial display (enrichment ratio); higher = better substrate or ligand; peptides without Tyr show the background
Measure: phosphorylation enrichment

[[record]]
monomer_sequence = "IKIMGYFIRTI [IDS_Y490_S491F]"
test_target = "EPHB1 (UniProt P54762)"
numeric_value = 0.432

[[record]]
monomer_sequence = "HDRGNYVQLNM [RECQL4_Y353_R355Q]"
test_target = "EPHB1 (UniProt P54762)"
numeric_value = 8.72

[[record]]
monomer_sequence = "RKNAKYLLKGE [CDH5_Y82]"
test_target = "EPHB1 (UniProt P54762)"
numeric_value = 0.848

[[record]]
monomer_sequence = "DRLASYLDKMR [KRT17_Y98_V102M]"
test_target = "EPHB1 (UniProt P54762)"
numeric_value = 0.376

[[record]]
monomer_sequence = "VTAALYGRLFE [BTD_Y536_YF]"
test_target = "EPHB1 (UniProt P54762)"
numeric_value = 0.535

[[record]]
monomer_sequence = "PSQRRYVYYYS [PTEN_Y174]"
test_target = "EPHB1 (UniProt P54762)"
numeric_value = 0.57

[[record]]
monomer_sequence = "EVKAQNEDIAQ [KRT1_Y358_Y358N]"
test_target = "EPHB1 (UniProt P54762)"
numeric_value = 0.422

[[record]]
monomer_sequence = "LGGSPYPRVPV [FGFR1_Y701_G703R]"
test_target = "EPHB1 (UniProt P54762)"
numeric_value = 0.356

[[record]]
monomer_sequence = "LDTSQYFRLFN [CPT2_Y217_M214T]"
test_target = "EPHB1 (UniProt P54762)"
numeric_value = 0.673

[[record]]
monomer_sequence = "EFGFRYELVQF [UGGT2_Y1289_Y1285F_YF]"
test_target = "EPHB1 (UniProt P54762)"
numeric_value = 0.592

[[record]]
monomer_sequence = "RMSSSYPTGLA [ADM_Y52]"
test_target = "EPHB1 (UniProt P54762)"
numeric_value = 0.37


* * *

Test Target: EPHB1 (UniProt P54762)
Experiment Description: phosphorylation enrichment, bacterial display (enrichment ratio); higher = better substrate or ligand; peptides without Tyr show the background
Recorded phosphorylation enrichment by entry
Measure: phosphorylation enrichment

[[record]]
monomer_sequence = "RSPLRYISILT [OR51B6_Y130_T131I]"
result = 0.446

[[record]]
monomer_sequence = "NDEDIYKGLPD [VAV3_Y141]"
result = 0.727

[[record]]
monomer_sequence = "FECKWYIPLTD [BCR_Y756_D752E_YF]"
result = 0.754

[[record]]
monomer_sequence = "WRPFGYPRRRR [BCS1L_Y181]"
result = 0.486

[[record]]
monomer_sequence = "GSERRYSREGG [PTPRN2_Y139]"
result = 0.5

[[record]]
monomer_sequence = "NSNAAYEESHF [LRIF1_Y714_Q716E]"
result = 0.483

[[record]]
monomer_sequence = "SVVVPYEPAEV [TP53_Y220_P223A]"
result = 0.704

[[record]]
monomer_sequence = "QRDSSYFWEIE [RAF1_Y340_YF]"
result = 0.776

[[record]]
monomer_sequence = "ASKEPYFVRCI [MYO1D_Y585_YF]"
result = 0.762

[[record]]
monomer_sequence = "HSSPVYVGRVV [TGM2_Y219_R214H]"
result = 2.08

[[record]]
monomer_sequence = "DFEGLYQEGGG [TMEM159_Y159_E154D]"
result = 0.746

[[record]]
monomer_sequence = "TNDRLYLRSLE [MTM1_Y71_Y68D]"
result = 0.514


Values compiled from the supplement of paper PMC10065799.
